target.system: recombinant soluble homotrimeric HA of A/duck/Yangzhou/02/05 (H8N4) (Influenza A virus A/duck/Yangzhou/02/2005(H8N4))
protocol.description: trimeric HA microarray, transfection supernatant set 2
applied.conditions: remark: other sources report otherwise
observed.property: Trimeric HA Binding: RLU
Mention the unit after the number when you answer.

Task: Please supply the value of reported Trimeric HA Binding: RLU for the item TCN-526 (5084_C17) (antibody, V domains shown) VH: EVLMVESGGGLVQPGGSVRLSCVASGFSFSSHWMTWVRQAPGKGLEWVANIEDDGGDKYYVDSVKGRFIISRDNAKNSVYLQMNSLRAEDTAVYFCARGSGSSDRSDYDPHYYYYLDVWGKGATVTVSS VL: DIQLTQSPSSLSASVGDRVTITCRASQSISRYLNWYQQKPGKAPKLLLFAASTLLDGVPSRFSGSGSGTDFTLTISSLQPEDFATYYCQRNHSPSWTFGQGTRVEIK
Result: 4300 RLU

Task: Report Trimeric HA Binding: RLU, nothing else, for this binder: TCN-504 (3251_K17) (antibody, V domains shown) VH: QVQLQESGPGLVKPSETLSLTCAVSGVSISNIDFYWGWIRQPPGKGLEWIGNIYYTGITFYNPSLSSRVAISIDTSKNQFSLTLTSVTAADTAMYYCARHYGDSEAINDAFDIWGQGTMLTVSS VL: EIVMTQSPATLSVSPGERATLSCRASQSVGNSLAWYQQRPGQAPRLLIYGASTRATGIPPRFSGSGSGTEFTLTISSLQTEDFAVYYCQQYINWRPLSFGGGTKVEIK
Result: 17800 RLU

Task: Respond only with Trimeric HA Binding: RLU recorded for TCN-527 (5086_C06) (antibody, V domains shown) VH: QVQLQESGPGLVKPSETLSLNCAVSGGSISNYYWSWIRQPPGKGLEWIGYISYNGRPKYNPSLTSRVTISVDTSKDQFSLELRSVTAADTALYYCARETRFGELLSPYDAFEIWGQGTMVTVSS VL: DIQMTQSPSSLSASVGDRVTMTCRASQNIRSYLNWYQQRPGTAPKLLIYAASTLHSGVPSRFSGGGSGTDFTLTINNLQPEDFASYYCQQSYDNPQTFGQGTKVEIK
Result: 17900 RLU
